molecular target: UniProt:P08183; experiment: Fraction of high affinity at binding site of human P-Glycoprotein (P-gp) in two-affinity model
Sequence (P08183 whole entry): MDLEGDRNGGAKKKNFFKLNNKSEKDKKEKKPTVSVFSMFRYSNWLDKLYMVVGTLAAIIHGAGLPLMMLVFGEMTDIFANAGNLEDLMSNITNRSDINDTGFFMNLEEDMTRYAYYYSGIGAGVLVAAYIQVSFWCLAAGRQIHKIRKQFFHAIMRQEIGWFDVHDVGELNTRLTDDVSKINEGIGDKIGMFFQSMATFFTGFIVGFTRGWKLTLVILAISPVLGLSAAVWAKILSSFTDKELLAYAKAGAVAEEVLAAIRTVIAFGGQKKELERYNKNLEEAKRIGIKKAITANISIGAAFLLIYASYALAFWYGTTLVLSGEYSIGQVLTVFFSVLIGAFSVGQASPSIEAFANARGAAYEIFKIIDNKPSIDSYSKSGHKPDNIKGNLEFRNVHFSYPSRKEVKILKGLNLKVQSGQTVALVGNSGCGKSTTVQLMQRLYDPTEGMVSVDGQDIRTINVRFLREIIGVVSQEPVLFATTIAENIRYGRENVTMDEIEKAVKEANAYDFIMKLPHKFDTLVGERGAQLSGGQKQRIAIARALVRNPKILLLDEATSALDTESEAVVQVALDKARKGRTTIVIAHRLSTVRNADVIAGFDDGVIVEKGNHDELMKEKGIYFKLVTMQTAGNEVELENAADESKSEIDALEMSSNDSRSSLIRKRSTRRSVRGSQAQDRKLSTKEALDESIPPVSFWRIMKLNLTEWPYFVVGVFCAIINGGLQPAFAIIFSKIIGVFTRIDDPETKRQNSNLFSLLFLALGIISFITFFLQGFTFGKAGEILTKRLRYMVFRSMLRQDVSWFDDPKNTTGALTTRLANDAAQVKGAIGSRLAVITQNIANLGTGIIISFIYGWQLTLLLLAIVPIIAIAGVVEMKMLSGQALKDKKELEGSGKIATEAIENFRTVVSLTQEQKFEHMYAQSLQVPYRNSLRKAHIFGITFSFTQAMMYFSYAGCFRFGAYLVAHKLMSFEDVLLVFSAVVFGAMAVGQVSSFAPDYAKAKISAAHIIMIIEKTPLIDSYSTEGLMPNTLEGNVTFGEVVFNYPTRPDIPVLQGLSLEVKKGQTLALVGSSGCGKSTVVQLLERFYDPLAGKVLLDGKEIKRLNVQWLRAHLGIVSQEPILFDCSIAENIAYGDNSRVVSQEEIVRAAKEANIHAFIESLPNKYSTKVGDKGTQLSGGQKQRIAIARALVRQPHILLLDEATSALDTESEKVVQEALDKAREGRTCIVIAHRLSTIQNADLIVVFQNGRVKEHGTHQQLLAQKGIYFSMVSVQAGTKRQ
READOUT_TYPE: Binding site fraction

Some solved entries appear below for comparison.
CC[C@]1(O)C[C@@H]2CN(CCc3c([nH]c4ccccc34)[C@@](C(=O)OC)(c3cc4c(cc3OC)N(C)[C@H]3[C@@](O)(C(=O)OC)[C@H](OC(C)=O)[C@]5(CC)C=CCN6CC[C@]43[C@@H]65)C2)C1	0.4
C=C[C@H]1C[N@@]2CC[C@H]1C[C@@H]2[C@@H](O)c1ccnc2ccc(OC)cc12	0.2
C=C[C@H]1C[N@@]2CC[C@H]1C[C@H]2[C@H](O)c1ccnc2ccc(OC)cc12	0.2
COC(=O)c1ccccc1-c1c2ccc(=N)cc-2oc2cc(N)ccc12	0.7
CN(C)CCCN1c2ccccc2Sc2ccc(Cl)cc21	0.8

(1) CC(C)NCC(O)COc1ccc(CCNC(=O)NC(C)C)cc1 (centres undefined)
(2) O=C(CCCN1CCC(O)(c2ccc(Cl)cc2)CC1)c1ccc(F)cc1
Task: I would appreciate it if you could say which entry, 1 or 2 , has the lower Binding site fraction value. Mark your answer with the label of the selected entry.
Output: 1
(1: 0.2, 2: 0.3)

(I) COCCc1ccc(OCC(O)CNC(C)C)cc1 (centres undefined)
(II) CC(C)NCC(O)COc1cccc2ccccc12 (centres undefined)
Task: Exercise: compare I and II ; which one has the greater Binding site fraction? # reply format: chosen label
Output: II

Reference for the values: ChEMBL document CHEMBL1135688
